Listed next: entries and their corresponding Human liver microsome (Residual % at 60 min).
assay: In vitro liver microsomal stability; format: in vitro ADME; details: human liver microsomes, NADPH, 37° C.
Return type: number; implicit unit %.

Before answering, review these 2 worked examples.
CCS(=O)(CC)=Nc1cc(N2CCOC[C@H]2C)nc2c1cnn2-c1ccn[nH]1 | 85.89
C[C@@H]1COCCN1c1cc(N=S2(=O)CCOCC2)c2cnn(-c3ccn[nH]3)c2n1 | 94.62

Pending compound:
Measured Human liver microsome (Residual % at 60 min), Cc1cc(-n2ncc3c(N=S(C)(C)=O)cc(N4CCOC[C@H]4C)nc32)[nH]n1 : 108.36

These entries and their values trace back to patent US20250026750A1.
